Reference source: patent US20250122171A1

target: hERG channel (Homo sapiens); construct: host or cells: hERG-T-Rex 293 (HEK 293), doxycycline-induced; test: hERG Safety Evaluation by Manual Patch-Clamp System; assay type: cell-based; conditions: 1 μM; hERG-T-Rex 293 cells; whole cell patch-clamp at 35° C.
Sequence (Q12809 whole entry): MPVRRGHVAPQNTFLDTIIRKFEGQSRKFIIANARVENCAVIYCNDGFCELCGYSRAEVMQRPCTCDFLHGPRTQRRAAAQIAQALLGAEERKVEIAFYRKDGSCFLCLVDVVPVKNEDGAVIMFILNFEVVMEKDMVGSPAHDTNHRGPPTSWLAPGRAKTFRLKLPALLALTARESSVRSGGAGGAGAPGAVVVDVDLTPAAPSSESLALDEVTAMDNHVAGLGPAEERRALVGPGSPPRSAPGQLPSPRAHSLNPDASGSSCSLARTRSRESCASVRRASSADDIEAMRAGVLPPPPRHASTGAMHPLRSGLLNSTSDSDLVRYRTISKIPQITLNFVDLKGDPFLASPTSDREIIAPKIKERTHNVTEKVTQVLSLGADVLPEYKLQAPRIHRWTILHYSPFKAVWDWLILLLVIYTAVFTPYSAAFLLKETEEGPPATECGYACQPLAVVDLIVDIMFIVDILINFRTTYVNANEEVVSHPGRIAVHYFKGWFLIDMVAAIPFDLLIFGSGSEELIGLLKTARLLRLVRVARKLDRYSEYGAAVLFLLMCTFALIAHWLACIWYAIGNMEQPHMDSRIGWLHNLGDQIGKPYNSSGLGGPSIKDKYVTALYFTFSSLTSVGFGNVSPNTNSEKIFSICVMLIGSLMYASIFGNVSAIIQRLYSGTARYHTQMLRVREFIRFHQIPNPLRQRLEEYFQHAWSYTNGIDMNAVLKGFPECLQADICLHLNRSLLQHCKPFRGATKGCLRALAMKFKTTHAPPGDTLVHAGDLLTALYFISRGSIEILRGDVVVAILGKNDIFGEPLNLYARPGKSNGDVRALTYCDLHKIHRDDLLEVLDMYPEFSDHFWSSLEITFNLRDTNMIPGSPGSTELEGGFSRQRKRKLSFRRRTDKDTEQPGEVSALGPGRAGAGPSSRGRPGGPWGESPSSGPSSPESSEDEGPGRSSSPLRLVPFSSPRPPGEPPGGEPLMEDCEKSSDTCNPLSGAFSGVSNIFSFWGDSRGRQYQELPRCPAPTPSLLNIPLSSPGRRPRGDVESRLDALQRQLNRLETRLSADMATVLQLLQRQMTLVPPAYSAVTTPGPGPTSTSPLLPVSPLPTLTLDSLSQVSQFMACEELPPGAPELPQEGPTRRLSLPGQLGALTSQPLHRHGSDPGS
Quick rule for you: hERG Inhibition (%) @ 1 μM under 9% gets 1, anything else gets 0.

## Input Decide: hERG Inhibition (%) @ 1 μM of C[C@@H](C(=O)Nc1cn(Cc2ccc(F)cc2F)cn1)N1CCC(F)(F)[C@@H](c2cc[n+]([O-])cc2)C1 (single isomer, unassigned) strictly below 9%?
## Output 0

## Input Decide: hERG Inhibition (%) @ 1 μM of C[C@@H](C(=O)Nc1cn2c(n1)CC[C@@H]2c1cc(F)cc(F)c1)N1CCC(F)(F)[C@@H](c2cc[n+]([O-])cc2)C1 (single isomer, unassigned) strictly below 9%?
## Output 0

## Input Decide: hERG Inhibition (%) @ 1 μM of C[C@H](C(=O)Nc1cn(Cc2cc(F)cc(F)c2)cn1)N1CCC(F)(F)[C@@H](c2cc[n+]([O-])cc2)C1 (single isomer, unassigned) strictly below 9%?
## Output 1

## Input Decide: hERG Inhibition (%) @ 1 μM of C[C@@H](C(=O)Nc1nc2cc3c(cc2s1)OCO3)N1CCC(F)(F)[C@@H](c2cc[n+]([O-])cc2)C1 (single isomer, unassigned) strictly below 9%?
## Output 0
